# Study system: UniProtKB P12527
# Sequence (P12527 whole entry): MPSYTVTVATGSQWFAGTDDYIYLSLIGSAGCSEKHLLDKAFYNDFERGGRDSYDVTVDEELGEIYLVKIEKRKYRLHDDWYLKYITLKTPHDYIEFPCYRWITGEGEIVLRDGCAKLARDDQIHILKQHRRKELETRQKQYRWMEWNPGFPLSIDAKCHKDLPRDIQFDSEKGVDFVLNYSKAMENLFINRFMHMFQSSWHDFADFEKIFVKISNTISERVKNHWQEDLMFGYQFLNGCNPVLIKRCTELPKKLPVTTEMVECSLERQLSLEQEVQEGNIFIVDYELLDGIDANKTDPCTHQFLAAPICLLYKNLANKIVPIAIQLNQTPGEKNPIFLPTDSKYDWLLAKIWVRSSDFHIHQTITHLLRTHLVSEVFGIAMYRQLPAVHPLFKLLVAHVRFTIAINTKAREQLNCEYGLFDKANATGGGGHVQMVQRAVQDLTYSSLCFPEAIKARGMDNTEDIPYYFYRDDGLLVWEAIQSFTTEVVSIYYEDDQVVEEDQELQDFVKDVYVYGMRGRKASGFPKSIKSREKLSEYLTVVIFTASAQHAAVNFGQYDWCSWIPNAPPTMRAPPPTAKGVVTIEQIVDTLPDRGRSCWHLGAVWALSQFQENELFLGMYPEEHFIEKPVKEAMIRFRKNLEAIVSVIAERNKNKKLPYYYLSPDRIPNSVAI
# Method summary: Inhibitory concentration against 5-lipoxygenase in rat RBL-1 cells
Observable: IC50

Clc1ccc(-c2ncn(CCCN3CCOCC3)c2-c2ccncc2)cc1Cl ... > 100 µM

Given the molecule Fc1ccc(-c2nc[nH]c2-c2ccncc2)cc1 , what is its reported IC50?
> 100 µM

Given the molecule Fc1ccc(-c2ncn(CCCN3CCOCC3)c2-c2ccncc2)cc1 , what is its reported IC50?
> 100 µM

====

This listing pairs compounds with measured IC50.
# Study system: MAP kinase p38 (Homo sapiens, UniProt O15264+Q15759+Q16539+P53778)
# Method summary: In vitro inhibitory concentration against radioligand [3H]SB-202190 binding to CSBP kinase in human monocytic cell line, THP-1
Write down the numeric answer in nM and omit the unit.

Recorded IC50, per entry:
Fc1ccc(-c2ncn(CCCN3CCOCC3)c2-c2ccccn2)cc1 ... 6460
CSc1cccc(-n2cnc(-c3ccc(F)cc3)c2-c2ccncc2)c1 ... 120

Given the compound Fc1ccc(-c2ncn(CCCNCc3ccccc3)c2-c2ccncc2)cc1 , what is its reported IC50?
70

Reference source for all entries: ChEMBL document CHEMBL1129676
